# Measured on: Calpain-1 catalytic subunit (Homo sapiens) (UniProt P07384)
# Sequence (P07384 whole entry): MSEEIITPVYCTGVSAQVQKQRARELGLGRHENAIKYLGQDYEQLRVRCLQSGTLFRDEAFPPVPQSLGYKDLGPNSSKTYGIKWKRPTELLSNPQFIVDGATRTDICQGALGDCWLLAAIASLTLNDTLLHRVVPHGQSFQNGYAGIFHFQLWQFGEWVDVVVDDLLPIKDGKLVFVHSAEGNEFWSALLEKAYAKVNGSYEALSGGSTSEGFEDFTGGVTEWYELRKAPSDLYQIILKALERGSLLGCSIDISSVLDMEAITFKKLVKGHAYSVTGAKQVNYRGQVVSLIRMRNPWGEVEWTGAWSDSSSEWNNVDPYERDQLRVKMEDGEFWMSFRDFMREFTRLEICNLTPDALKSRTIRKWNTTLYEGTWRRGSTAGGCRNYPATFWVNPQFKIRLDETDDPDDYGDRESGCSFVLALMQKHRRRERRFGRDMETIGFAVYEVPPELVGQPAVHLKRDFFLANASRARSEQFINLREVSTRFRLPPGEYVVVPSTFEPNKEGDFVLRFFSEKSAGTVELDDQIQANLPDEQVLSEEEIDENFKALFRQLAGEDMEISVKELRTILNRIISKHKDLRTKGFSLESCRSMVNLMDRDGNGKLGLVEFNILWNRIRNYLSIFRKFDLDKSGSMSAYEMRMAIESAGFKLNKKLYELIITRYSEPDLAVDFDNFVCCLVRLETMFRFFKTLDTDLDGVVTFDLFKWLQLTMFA
# Assay details: Inhibition of human calpain-1 using Suc-LLVY-AMC as substrate by fluorescence assay
Active and inactive are the calls of the source. The rule behind the calls is not given here.
Result type: inhibition

Example entries and their recorded answers appear below.
[
  {
    "Compound": "Cc1nccc2c1C(=O)OC2(C)C",
    "Result": "inactive"
  },
  {
    "Compound": "CC1(C)OC(=O)c2c1ccnc2NCc1ccccc1",
    "Result": "inactive"
  },
  {
    "Compound": "Cc1ccc(OCC(O)CNc2nccc3c2C(=O)OC3(C)C)cc1 (configuration not stated)",
    "Result": "inactive"
  },
  {
    "Compound": "Cc1cc(=O)oc2cc[nH]c(=O)c12",
    "Result": "inactive"
  },
  {
    "Compound": "Cc1nccc2c1C(=O)OC21CCCCC1",
    "Result": "inactive"
  }
]

Exercise: Form: Entry = O=C1OC2(CCCCC2)c2ccnc(O)c21 | System = Calpain-1 catalytic subunit (Homo sapiens) (UniProt P07384) | inhibition = ____
Key: inactive

Exercise: Form: Entry = CC1(C)OC(=O)c2c1ccnc2N | System = Calpain-1 catalytic subunit (Homo sapiens) (UniProt P07384) | inhibition = ____
Key: inactive

Exercise: Form: Entry = CC1(C)OC(=O)c2c1ccnc2NNC(N)=S | System = Calpain-1 catalytic subunit (Homo sapiens) (UniProt P07384) | inhibition = ____
Key: inactive

Exercise: Form: Entry = CC1(C)OC(=O)C(C(N)=S)=C1c1ccccc1 | System = Calpain-1 catalytic subunit (Homo sapiens) (UniProt P07384) | inhibition = ____
Key: inactive

Exercise: Form: Entry = CCOC(=O)C1=C(/C=C/N(C)C)C(C)(C)OC1=O | System = Calpain-1 catalytic subunit (Homo sapiens) (UniProt P07384) | inhibition = ____
Key: inactive

Exercise: Form: Entry = CC1(C)OC(=O)c2c1ccnc2O | System = Calpain-1 catalytic subunit (Homo sapiens) (UniProt P07384) | inhibition = ____
Key: inactive

Exercise: Form: Entry = O=C1OC2(CCCCC2)c2ccnc(S)c21 | System = Calpain-1 catalytic subunit (Homo sapiens) (UniProt P07384) | inhibition = ____
Key: inactive

Exercise: Form: Entry = CC1(C)OC(=O)c2c1ccnc2N1CCCCC1 | System = Calpain-1 catalytic subunit (Homo sapiens) (UniProt P07384) | inhibition = ____
Key: inactive

Exercise: Form: Entry = CC1(C)OC(=O)C(C(N)=O)=C1/C=C/c1ccccc1 | System = Calpain-1 catalytic subunit (Homo sapiens) (UniProt P07384) | inhibition = ____
Key: inactive

Exercise: Form: Entry = CC1(C)OC(=O)c2c1ccnc2NCC(O)COc1ccccc1 (configuration not stated) | System = Calpain-1 catalytic subunit (Homo sapiens) (UniProt P07384) | inhibition = ____
Key: inactive

Exercise: Form: Entry = O=c1[nH]ccc2c1c(=O)oc1ccccc12 | System = Calpain-1 catalytic subunit (Homo sapiens) (UniProt P07384) | inhibition = ____
Key: inactive

Exercise: Form: Entry = CC1(C)OC(=O)c2c1ccnc2NCC(O)COc1ccc(F)cc1 (configuration not stated) | System = Calpain-1 catalytic subunit (Homo sapiens) (UniProt P07384) | inhibition = ____
Key: inactive
